- study_system: Nonstructural protein 1 (Influenza A virus)
- Sequence (Q194T2 whole entry): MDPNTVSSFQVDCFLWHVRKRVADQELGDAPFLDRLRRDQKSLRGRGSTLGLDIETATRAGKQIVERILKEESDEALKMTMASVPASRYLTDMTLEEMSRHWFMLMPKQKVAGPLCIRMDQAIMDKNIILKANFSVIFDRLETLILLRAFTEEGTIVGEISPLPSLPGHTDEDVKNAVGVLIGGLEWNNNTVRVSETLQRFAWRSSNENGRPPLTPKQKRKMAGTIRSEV
- Type: functional, Influenza A virus (A/California/07/2009(H1N1))
Calls of active or inactive are those of the source.
measured_property: IC50

mol=O=C(CNCc1ccccn1)Nc1ccc([N+](=O)[O-])cc1C(=O)Nc1ccccc1F reported="5.49 µM (active)"
mol=CN(C)CCCNC(=O)c1ccc(-c2cc(O)c3ncccc3c2)cc1 reported="4.25 µM (active)"
mol=Nc1nnc(CC(=O)N/N=C\c2cc([N+](=O)[O-])ccc2O)s1 reported="7.93 µM (active)"
mol=Cc1cc(N(C)N)nc(NC(=O)NS(=O)(=O)c2ccccc2Cl)n1 reported="5.96 µM (active)"
mol=O=C1/C(=C\c2cccc([N+](=O)[O-])c2O)SC(=S)N1Cc1ccccc1 reported="16.4 µM (active)"
mol=CCOC(=O)C1CCN(Cc2ccc(O)c3ncccc23)CC1 reported="5.25 µM (active)"
mol=COc1ccc(NC(=S)NNc2ccc(S(=O)(=O)Nc3ccccc3C(=O)O)cc2[N+](=O)[O-])cc1 reported="31.7 µM (active)"
mol=O=C(Nc1nc(-c2ccccn2)cs1)c1ccc([N+](=O)[O-])o1 reported="11.7 µM (active)"

---

- Test system: Streptococcus sp. 'group A'
- test: Streptococcus pyogenes SK(-)GAS viability under kanamycin – luminescence, BacTiterGlo, confirmation, counter-screen for streptokinase expression inhibitor project, dose response (AID 1900)
- Assay type: functional, organism-based
Activity calls are given as the source filed them.
measured_property: EC50

molecule="CC1CC(C)CN(Cc2nc(N)nc(Nc3ccc4ccccc4c3)n2)C1 (stereo unspecified)" reported="> 150 µM (not active)"
molecule=O=C(NC1=NCCS1)c1cc(-c2ccccc2)nn1-c1ccccc1 reported="> 150 µM (not active)"
molecule=C[C@H]1[C@H](C)CC[C@]2(C(=O)O)CC[C@]3(C)C(=CC[C@@H]4[C@@]5(C)CC[C@H](O)C(C)(C)[C@@H]5CC[C@]43C)[C@H]12 reported="0.949 µM (active)"
molecule=O=C(NNC(=S)NC(=O)c1cn(-c2ccccc2)nc1-c1ccccc1)c1ccncc1 reported="0.239 µM (active)"
molecule="COc1ccc(C(=O)N2CCCC(Nc3ccc(C)c(C)c3)C2)cc1F (stereo unspecified)" reported="> 150 µM (not active)"
molecule=COc1ccc(N2CCN(C(=O)Cc3csc(NC(=O)Nc4ccccc4OC)n3)CC2)cc1 reported="> 150 µM (not active)"

---

- study_system: Peroxisome proliferator-activated receptor gamma/Nuclear receptor coactivator 1 (Homo sapiens, UniProt P37231)
- Sequence (P37231 whole entry): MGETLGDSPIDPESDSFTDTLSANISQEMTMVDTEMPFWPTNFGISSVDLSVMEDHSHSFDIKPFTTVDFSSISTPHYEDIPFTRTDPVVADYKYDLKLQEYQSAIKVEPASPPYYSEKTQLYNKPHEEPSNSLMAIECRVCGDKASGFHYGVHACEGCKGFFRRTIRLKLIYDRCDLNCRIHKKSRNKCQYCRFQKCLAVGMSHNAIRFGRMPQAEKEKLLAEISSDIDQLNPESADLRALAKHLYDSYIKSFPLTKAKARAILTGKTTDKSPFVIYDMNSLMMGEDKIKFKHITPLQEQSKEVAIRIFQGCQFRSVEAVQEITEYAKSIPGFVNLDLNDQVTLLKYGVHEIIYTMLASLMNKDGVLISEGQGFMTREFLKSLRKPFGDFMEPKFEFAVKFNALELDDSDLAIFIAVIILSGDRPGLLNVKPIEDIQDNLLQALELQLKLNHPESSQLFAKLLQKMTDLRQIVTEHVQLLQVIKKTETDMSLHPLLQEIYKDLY
- Sequence (Q15788 whole entry, further chain): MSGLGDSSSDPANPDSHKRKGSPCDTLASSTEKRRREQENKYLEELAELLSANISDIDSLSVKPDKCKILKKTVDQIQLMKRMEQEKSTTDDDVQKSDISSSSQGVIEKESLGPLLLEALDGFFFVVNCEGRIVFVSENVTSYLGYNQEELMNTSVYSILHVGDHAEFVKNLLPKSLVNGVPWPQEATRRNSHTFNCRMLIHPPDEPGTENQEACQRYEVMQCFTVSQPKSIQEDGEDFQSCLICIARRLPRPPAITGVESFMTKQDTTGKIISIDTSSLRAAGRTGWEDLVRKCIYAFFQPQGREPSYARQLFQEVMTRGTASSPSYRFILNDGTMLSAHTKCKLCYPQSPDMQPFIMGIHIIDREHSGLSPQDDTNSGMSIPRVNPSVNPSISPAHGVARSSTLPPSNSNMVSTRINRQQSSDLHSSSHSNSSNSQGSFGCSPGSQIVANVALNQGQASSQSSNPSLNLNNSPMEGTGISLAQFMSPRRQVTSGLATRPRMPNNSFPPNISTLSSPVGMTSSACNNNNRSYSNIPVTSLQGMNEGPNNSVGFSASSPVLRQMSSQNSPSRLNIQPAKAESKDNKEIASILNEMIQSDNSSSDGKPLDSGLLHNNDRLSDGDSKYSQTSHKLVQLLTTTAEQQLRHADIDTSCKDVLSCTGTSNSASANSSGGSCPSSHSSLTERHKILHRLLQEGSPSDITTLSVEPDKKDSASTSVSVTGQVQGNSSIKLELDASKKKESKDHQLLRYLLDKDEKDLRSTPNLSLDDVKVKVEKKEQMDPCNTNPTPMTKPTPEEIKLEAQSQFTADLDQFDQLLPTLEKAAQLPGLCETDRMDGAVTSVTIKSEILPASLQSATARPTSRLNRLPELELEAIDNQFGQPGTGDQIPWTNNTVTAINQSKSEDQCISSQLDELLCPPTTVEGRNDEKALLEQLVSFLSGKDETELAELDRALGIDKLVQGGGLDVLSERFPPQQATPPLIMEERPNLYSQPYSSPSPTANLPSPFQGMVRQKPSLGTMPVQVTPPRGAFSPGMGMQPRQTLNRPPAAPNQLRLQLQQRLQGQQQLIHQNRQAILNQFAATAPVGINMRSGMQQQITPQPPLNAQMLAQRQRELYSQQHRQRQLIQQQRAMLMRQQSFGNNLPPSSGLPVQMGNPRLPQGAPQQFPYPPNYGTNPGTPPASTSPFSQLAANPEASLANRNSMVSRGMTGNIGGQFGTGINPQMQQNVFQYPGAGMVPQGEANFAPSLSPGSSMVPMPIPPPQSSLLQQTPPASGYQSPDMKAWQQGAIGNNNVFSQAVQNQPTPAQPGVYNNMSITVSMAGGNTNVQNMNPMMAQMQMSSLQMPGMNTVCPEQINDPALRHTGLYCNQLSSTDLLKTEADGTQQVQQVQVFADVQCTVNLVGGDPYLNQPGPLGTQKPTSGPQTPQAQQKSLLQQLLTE
- test: TR-FRET dose response biochemical High Throughput Screening assay for agonists of the steroid receptor coactivator 1 (SRC-1) recruitment by the peroxisome proliferator-activated receptor gamma (PPAR gamma): non-selective agonists. [Related pubchem assays (depositor defined):AID1300, AID1808, AID504735, AID631]
- Type: protein assay
The source made the active and inactive calls.
measured_property: EC50

mol=O=c1c2c(-c3cccs3)csc2[nH]c(=S)n1-c1ccccc1 reported="12.8 µM (inactive)"
mol=Cc1ccc(Sc2c(O)c3ccccc3n(C)c2=O)cc1 reported="> 79.4 µM (inactive)"
mol=Cc1cc(C(=O)OCC(=O)c2ccc(Br)s2)c(C)o1 reported="> 79.4 µM (inactive)"
mol=COc1cc2c(cc1OC)C1=NC(=O)CN1C(SCc1ccccc1C)=N2 reported="> 79.4 µM (inactive)"
mol=CC(=O)c1sc2nc(SCC(=O)N3CCCCC3)[nH]c(=O)c2c1C reported="> 79.4 µM (inactive)"

---

- study_system: Calpain-2 catalytic subunit (Sus scrofa, UniProt P43367)
- Sequence (P43367 whole entry): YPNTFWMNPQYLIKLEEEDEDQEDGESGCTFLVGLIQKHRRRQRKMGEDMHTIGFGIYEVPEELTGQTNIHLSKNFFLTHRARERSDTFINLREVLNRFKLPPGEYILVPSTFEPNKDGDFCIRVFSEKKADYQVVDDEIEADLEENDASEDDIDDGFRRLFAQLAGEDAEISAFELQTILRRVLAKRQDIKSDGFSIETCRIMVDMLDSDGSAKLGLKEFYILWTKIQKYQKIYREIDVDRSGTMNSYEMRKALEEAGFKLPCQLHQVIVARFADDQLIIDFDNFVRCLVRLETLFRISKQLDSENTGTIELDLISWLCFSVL
- test: m-calpain protease blockers, concentration series – biochemical, fluorogenic peptide substrate, dose response (AID 1420)
- Type: functional
The source made the active and inactive calls.
measured_property: IC50

compound=Cc1ccc(C)c(SCC(=O)NC(=O)Nc2ccc3c(c2)OCCO3)c1 reported="< 400 nM (not active)"
compound=COc1ccc(C(C)=O)c2c(O)cccc12 reported="917 nM (not active)"
compound="Cn1c2c(c(=O)n(C)c1=O)C(CC(=O)Nc1ccccc1)C(=O)N2 (stereo not given)" reported="2620 nM (not active)"
compound="CC(C)Cc1ccc(C(C)C(=O)OCC(=O)c2c[nH]c3ccccc23)cc1 (stereo not given)" reported="6650 nM (not active)"
compound="Cn1c(N)c(C(=O)COC(=O)CC2CC3CCC2C3)c(=O)n(C)c1=O (stereo not given)" reported="2160 nM (active)"

---

Target or system Estrogen receptor (Homo sapiens): recorded IC50 listed per item.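 Further: potency for inhibiting coactivator peptide recruitment to the receptor.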
Calls of active or inactive are those of the source.
measured_property: IC50

compound=O=C(c1cccc(F)c1)N1CCN(C(=O)c2cc3ncc(Br)cn3n2)CC1 reported="33.4 µM (not active)"
compound=CCN1CCc2nc(NC(=O)Cc3ccc4c(c3)OCCO4)sc2C1 reported="28.8 µM (active)"
compound=O=C(CSc1nnnn1-c1ccccc1)Nc1nsc(-c2ccc(Cl)cc2)n1 reported="20.8 µM (active)"
compound="COc1ccc(Br)cc1CNC(=O)C1CCCN(c2nc3ccccc3o2)C1 (centres undefined)" reported="> 50 µM (not active)"

---

- study_system: Cytochrome P450 2D6 (Homo sapiens);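 further: CYP2D6 member of a cytochrome P450 panel assay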
- Sequence (P10635 whole entry): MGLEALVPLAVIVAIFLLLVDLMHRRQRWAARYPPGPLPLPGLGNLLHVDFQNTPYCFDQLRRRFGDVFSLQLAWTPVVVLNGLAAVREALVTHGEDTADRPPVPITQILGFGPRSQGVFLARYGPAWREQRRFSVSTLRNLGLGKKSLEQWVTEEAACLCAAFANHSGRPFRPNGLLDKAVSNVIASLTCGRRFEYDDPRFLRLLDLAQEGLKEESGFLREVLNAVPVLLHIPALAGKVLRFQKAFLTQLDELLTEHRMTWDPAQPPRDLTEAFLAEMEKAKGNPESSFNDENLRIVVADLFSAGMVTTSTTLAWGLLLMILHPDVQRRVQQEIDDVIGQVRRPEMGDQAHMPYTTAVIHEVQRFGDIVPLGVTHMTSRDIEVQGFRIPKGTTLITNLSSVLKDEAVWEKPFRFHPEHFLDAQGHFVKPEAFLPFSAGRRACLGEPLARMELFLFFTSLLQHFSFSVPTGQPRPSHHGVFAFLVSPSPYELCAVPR
Active and inactive are the calls of the source.
Listing of recorded AC50 by entry.
measured_property: AC50

molecule=COc1ccccc1NC(=O)COC(=O)c1ccc(S(=O)(=O)NCc2ccco2)cc1 reported="11.2 µM (inconclusive)"
molecule=COc1cc(/C=C(/C#N)c2nc3ccccc3[nH]2)ccc1Oc1ncccc1[N+](=O)[O-] reported="3.16 µM (inconclusive)"
molecule=FC(F)(F)c1ccccc1-c1nccc(NCc2ccccc2)n1 reported="25.1 µM (inconclusive)"
molecule=CCN(CC)CCOC(=O)[C@@H](Cc1cccc2ccccc12)C[C@@H]1CCCO1 reported="5.01 µM (inconclusive)"
molecule="Cc1ccc(C2=NN(S(C)(=O)=O)C(c3cccs3)C2)cc1 (stereo not given)" reported="14.1 µM (inconclusive)"
molecule=CCOC(=O)C1=C2SCC(=O)N2C(N)=C(C#N)C1 reported="11.2 µM (inconclusive)"
molecule=CC(=O)N1CCC2(CCCN(c3cccc(-c4ccccc4)c3)C2)CC1 reported="39.8 µM (inconclusive)"
molecule=O=C(Cc1cccs1)N1CCC(c2nc3c(nnn3Cc3ccccc3Cl)c(=O)[nH]2)CC1 reported="14.1 µM (inconclusive)"
molecule=Cc1sc2ccccc2c1CC1=NCCN1 reported="31.6 µM (inconclusive)"
molecule=CCOC(=O)c1cc2sc(C)cc2n1CCCN1C(=O)c2ccccc2C1=O reported="15.8 µM (inconclusive)"
molecule=C[C@@H]1CC[C@H]2C(=O)NC[C@@H](O)CN2[C@@H]1c1ccc(Br)cc1 reported="3.16 µM (inconclusive)"
molecule=COc1ccc2c(c1O)-c1cccc3c1[C@H](C2)N(C)CC3 reported="31.6 µM (inconclusive)"
molecule=CO[C@@H]1/C=C\O[C@@]2(C)Oc3c(C)c(O)c4c(c3C2=O)/C(=N/[C@H]2CC[C@H](O)O[C@@H]2C)C=C(NC(=O)/C(C)=C\C(=O)[C@@H]2C[C@@H]2[C@@H](O)[C@H](C)[C@@H](O)[C@H](C)[C@H](OC(C)=O)[C@@H]1C)C4=O reported="3.16 µM (inconclusive)"
molecule=Nc1nnc(-c2cccc(Cl)c2Cl)c(N)n1 reported="6.31 µM (active)"
molecule=O=C(Oc1ccccc1)N1CCC2(CCCN(c3ccccn3)C2)CC1 reported="39.8 µM (inconclusive)"
molecule=Cc1ccc(/C=C/C2=Cc3c(sc(NC(=O)CSc4nnc(N)[nH]4)c3C#N)C(C)(C)C2)o1 reported="22.4 µM (inconclusive)"
molecule=COc1ccccc1CNc1ncnc2ccc(-c3ccccc3C#N)cc12 reported="3.16 µM (inconclusive)"
molecule=Br.Brc1ccc(C2=Nn3c(nnc3-c3cccnc3)SC2)s1 reported="4.47 µM (inconclusive)"
molecule=COc1ccc(CNc2ccnc(-c3cccc(NS(C)(=O)=O)c3)n2)c(OC)c1 reported="12.6 µM (inconclusive)"
molecule=COc1ccccc1CNc1ccnc(-c2ccc(C(=O)N(C)C)cc2)n1 reported="39.8 µM (inconclusive)"

---

Reported EC50 values follow for various molecules
- test: Luminescence Cell-Based Dose Confirmation HTS to Identify Activators of 5'UTR Stem-Loop Driven Alpha-Synuclein mRNA Translation in H4 Neuroglioblastoma Cells. [Related pubchem assays: 1829 (Project Summary), 1814 (Primary HTS)]
- Type: functional
Activity calls are given as the source filed them.
measured_property: EC50

molecule="CCC1C(=O)n2nc(-c3ccccc3)cc2N=C1C (stereo unspecified)" measured_property=EC50 reported="25.7 µM (active)"
molecule=O=C(Nc1ccccc1)O/N=C/c1ccc(F)cc1 measured_property=EC50 reported="< 0.1 µM (active)"
molecule=CC(=O)c1sc(N/N=C/c2cccc(O)c2)nc1C measured_property=EC50 reported="6.61 µM (active)"
molecule=CCOC(=O)N1CCN(C(=O)c2ccc3oc(CCCc4ccccc4)nc3c2)CC1 measured_property=EC50 reported="0.579 µM (active)"
molecule=O=C1NC2(CCCCC2)C(=O)N1/N=C/c1ccccc1Br measured_property=EC50 reported="> 120 µM (not active)"
molecule=Cc1nnc2n1N=CC=C(c1ccccc1)S2 measured_property=EC50 reported="0.547 µM (active)"
